# System: Pseudomonas aeruginosa (ATCC # 27853)
# experiment_description: Broth microdilution MIC, P. aeruginosa
# Type: cell-based
# details: Mueller Hinton Broth
metric_name: PSAE/MH (MIC)

# mol, endpoint_result
rows = [
    ("CCCCCCCCNC(=O)c1cc(O)cs1", "Neg"),
    ("COC(=O)c1sc(C(=O)NNc2ccc(Cl)cc2)cc1O", "Neg"),
    ("COC(=O)c1sc(C(=O)O)cc1O", "Neg"),
    ("CCCCCCCCNC(=O)c1cc(O)c(C(=O)OC)s1", "Neg"),
    ("C=CCNC(=O)c1cc(O)c(C(=O)OC)s1", "Neg"),
]
